Cited source for all entries: ChEMBL document CHEMBL5038649

# measuredTarget: Tubulin (Homo sapiens) (UniProt P68371+Q9H4B7+P0DPH7+P68366+Q13509+Q71U36+P04350+Q3ZCM7+P07437+P68363+Q9BQE3+Q6PEY2+Q13885+Q9BVA1+Q9BUF5)
# assayDetails: Induction of microtubule depolymerization in human MDA-MB-231 cells assessed as spindle formation incubated for 24 hrs by immunofluorescence staining based confocal microscopic analysis
# Type: cell-based
Active and inactive are the calls of the source. The rule behind the calls is not given here.
Result category, one only: YES (active), NO (inactive)

sampleSmiles	assignedCategory
O=C(/C=C/c1csc2ccccc12)c1c(O)ccc2ccccc12	YES
COc1ccc(/C=C\c2cc(OC)c(OC)c(OC)c2)cc1O	YES
COc1cc2occ(-c3csc4ccccc34)c(=O)c2c(OC)c1OC	NO

Qu. What outcome does the record of this test show for COc1cc2c(c(OC)c1OC)O/C(=C\c1csc3ccccc13)C2=O ?
Ans. NO
